Tested on: MCF7 breast
assay_summary: NCI-60 one-dose screen, 48 h (100 = growth as untreated, 0 = no growth, -100 = all killed)
condition_label: 10 µM unless noted
Compounds without any hit were thinned out: in the full panel of roughly 83,000, 20% have a hit.
property: growth (%)
Note: unit % is implicit; provide only the numeric part.

Task: Which growth value is on record for `Cc1nc2c(O)cccc2cc1CO` ?
Output: 96.8

Task: Would you mind telling me what growth value was observed for `O=C(Oc1ccc[nH]c1=O)c1cccc(Cl)c1` ?
Output: 93.9

Task: Look at this compound and give its reported growth. `O=[N+]([O-])c1ccc(Oc2cccc(C(F)(F)F)c2)c([N+](=O)[O-])c1`
Output: 112

Task: growth lookup needed for `Nc1nc(Cl)c2[nH]cnc2n1` , thanks.
Output: 108

Task: Endpoint output: growth of Nc1nc2ncc(CCNc3ccc(C(=O)NC(CCC(=O)O)C(=O)O)cc3)nc2c(=O)[nH]1 (stereo unspecified) . Value?
Output: 112

Task: Endpoint output: growth of `Nc1ccc2c3c(cccc13)-c1ccccc1-2` . Value?
Output: 88.8

Task: // lookup growth for COc1ccc(C2CC(c3ccc(OC)c(OC)c3)=NN2C(=O)c2cc(OC)c(OC)c(OC)c2)cc1 (stereo unspecified)
Output: 27.6

Task: Can you share its growth? I mean this compound: `Cc1ccc2c(c1)C(=O)/C(=C/c1ncc([N+](=O)[O-])n1C)O2`
Output: -1.55

Task: I'd like to know its growth. The compound in question is `CN(CC(=O)N(Cc1ccc(C2CCCCC2)cc1)c1ccc(C(=O)O)cc1)S(=O)(=O)c1c(F)c(F)c(F)c(F)c1F`
Output: 10.6

Task: // returns reported growth for input `COC(=O)CC1=C(C)/C(=C/c2[nH]c(-c3ccc[nH]3)cc2OC)N=C1C`
Output: -3.82

Task: Record request: growth value, item O=C(NCCc1ccccc1)C1CCC(=O)N1Cc1ccc(Br)cc1 (stereo unspecified)
Output: 102

Task: Requested field: growth. Item: `O=C(Nc1ccc(Cl)cc1Cl)Nc1ccc(-c2cccnc2)cc1N1CCC(CO)CC1`
Output: 20

Task: Quick check: growth of `COc1ccc2nccc(/C=C/c3ccnc4ccc(OC)cc34)c2c1` ?
Output: 88.1

Task: Reported growth for `COc1cc2c(cc1OCCCOc1ccc(-c3cc4ccccc4c4ccccc34)cc1)N=C[C@@H]1CCCN1C2=O` : what is it?
Output: -75.1

Task: Find the recorded growth belonging to `O=C(Nc1nc(-c2ccc(Cl)cc2)cs1)c1cc(O)c(O)c(O)c1` and report it.
Output: 28.3

Task: # query: growth of entry `O=C(CCc1nnc(Cn2cncn2)o1)c1nc2ccccc2[nH]1`
Output: 91

Task: Fill in: growth of `c1ccc(-c2nn[nH]n2)c(-c2ccc(CN3CCN(c4nsc5ccccc45)CC3)cc2)c1` is ___
Output: 85.6

Task: What value of measured growth is listed for COc1cc(C2NC(c3ccc(Cl)cc3)C(C)/C(=N/NC(N)=S)C2C)cc(OC)c1OC (stereo unspecified) ?
Output: 90.3

Task: // lookup growth for CCCCCCCC/C=C/CCCCCCCC1=NC(C)(C)CN1CC(C)O (stereo unspecified)
Output: 17.1

Task: Any idea what growth was measured for `C[C@]12CC[C@@H]3c4ccc(O)c([N+](=O)[O-])c4CC[C@H]3[C@@H]1CC[C@@H]2NS(=O)(=O)c1cccc(Br)c1` ?
Output: 14.6

Task: Bench note: what growth did `O=C(Nc1cccc(C(F)(F)F)c1)Nc1ccc(OCc2nnc(-c3ccc(Cl)cc3)o2)c(F)c1` show?
Output: 53.6

Numbers sourced from PubChem BioAssay (NCI).
